Attribution: PubChem BioAssay (NCI)

Tested on: SF-268 CNS
assayComment: NCI-60 one-dose screen, 48 h
assayConditions: 10 µM unless noted
The panel holds about 83,000 compounds, 20% with a hit somewhere; the sample as a whole holds those more often. Active and inactive are the calls of the source. How the source made its calls: active means growth percent below 10; inactive means the rest.
Classes used: 1 (yes) (active), 0 (no) (inactive)

{"compound": "Cn1c(=O)c2c(c3ccccc31)OC(N)=C(C#N)C21C(=O)c2ccccc2C1=O", "class": "0 (no)"}
{"compound": "CN1CCN(CCOc2ccc(-c3cnc4c(-c5ccc(C(F)(F)F)cc5)cnn4c3)cc2)CC1", "class": "0 (no)"}
{"compound": "Cc1ncc(C(=O)Nc2ccc(CN3CCN(C)CC3)c(C(F)(F)F)c2)cc1C#Cc1cnc(N)c2cnccc12", "class": "0 (no)"}
{"compound": "CCCCCCCCCCCCCCCCOC(=O)c1c(C)[nH]c(/C=C2\\N=C(c3ccc[nH]3)C=C2OC)c1C", "class": "0 (no)"}
{"compound": "CC(C)=CC(=O)N[C@@H]1CC2CCC3C(CC[C@@]4(C)C3CC[C@@H]4C(C)N(C)C)[C@@]2(C)C[C@@H]1O (some centres not stated)", "class": "0 (no)"}
{"compound": "Cn1cccc1/C=C1\\C(=O)Nc2ccccc21", "class": "0 (no)"}
{"compound": "COc1cc2c(c(OC)c1OC)C(=O)CC(c1cccc(NC(=O)c3ccccc3Br)c1)O2 (configuration not stated)", "class": "0 (no)"}
{"compound": "O=C1CCCc2nc3sc4c(=O)n(-c5ccccc5Cl)nnc4c3cc21", "class": "0 (no)"}
{"compound": "O=C(O)CCCc1cnc2c3sccc3nc(SCc3c(Cl)cccc3Cl)n12", "class": "0 (no)"}
{"compound": "CN(CCC#N)c1ccc(/C=C2\\NC(=O)NC2=O)cc1", "class": "0 (no)"}
{"compound": "CC1(C)CC[C@]2(C(=O)N3CCOCC3)CC[C@]3(C)C(=CC[C@@H]4[C@@]5(C)C/C(=C/c6ccncc6)C(=O)C(C)(C)[C@@H]5CC[C@]43C)[C@@H]2C1", "class": "0 (no)"}
{"compound": "CCOC(=O)c1c(NC(=O)CSc2n[nH]c3nc4ccccc4n23)sc(CC)c1C", "class": "0 (no)"}
{"compound": "COc1cc2c3c(c1O)-c1ccccc1[C@@H]1OC(=O)N(CC2)[C@H]31", "class": "0 (no)"}
{"compound": "CCCCCCC(CCCC)COC(=O)c1ccc(Cl)cc1 (configuration not stated)", "class": "0 (no)"}
{"compound": "O=C1NC(=C(Cl)Cl)/C(=N/S(=O)(=O)NCCc2c[nH]c3ccccc23)N1", "class": "0 (no)"}
{"compound": "C/C(=N\\O)C(=O)NCCCCCC(=O)Nc1ccccc1", "class": "0 (no)"}
{"compound": "CCCCCSB(SCCCCC)c1ccccc1", "class": "0 (no)"}
{"compound": "CCOC(=O)c1c(C)c2c(n1C)CSc1cc(S(=O)(=O)c3ccccc3)c(=O)[nH]c1-2", "class": "0 (no)"}
{"compound": "N#CC(C#N)N=Nc1ccc(Cl)cc1Cl", "class": "0 (no)"}
{"compound": "COc1ccc2c(c1)c(-c1nonc1-c1cn(C)c3ccc(OC)cc13)cn2C", "class": "0 (no)"}
{"compound": "Cc1cc(N2CCN(C)CC2)nc(NCc2cc(Nc3ccnc4cc(Cl)ccc34)ccc2F)n1", "class": "1 (yes)"}
{"compound": "Cc1c2ccccc2nc2c1ccc1cccnc12", "class": "0 (no)"}
{"compound": "Cn1c(=O)c2c(nc(NC3=NS(=O)(=O)c4ccccc43)n2Cc2ccccc2)n(C)c1=O", "class": "0 (no)"}
{"compound": "CCOC(=O)c1c(-c2ccc(Cl)cc2)c(C#N)c2c(C#N)c(N)nn2c1N", "class": "0 (no)"}
{"compound": "COc1cc(/C=C2\\CN(S(=O)(=O)c3ccc(C)cc3)C/C(=C\\c3cc(CN4CCCCC4)c(O)c(OC)c3)C2=O)cc(CN2CCCCC2)c1O", "class": "1 (yes)"}
{"compound": "Cc1nc2ccccc2c(/C=C/c2ccc(C(F)(F)F)cc2)c1C(=O)/C=C/c1ccccc1", "class": "0 (no)"}
{"compound": "O=C1/C=C/[C@@H](O)[C@@H]2C[C@@H](O)C[C@H]2/C=C/CCC[C@H](CCOCc2ccccc2)O1", "class": "0 (no)"}
{"compound": "CC1(C)CCC(S(=O)(=O)c2ccc3c(c2)/C(=N\\O)c2cc(S(=O)(=O)N4CCN(c5ccc(F)cc5O)CC4)ccc2-3)CC1", "class": "1 (yes)"}
{"compound": "C=C1C(=O)O[C@H]2[C@H]1CC/C(COC(=O)NCCCCCCCCNC(=O)OC/C1=C/CC[C@@]3(C)O[C@H]3[C@H]3OC(=O)C(=C)[C@@H]3CC1)=C\\CC[C@@]1(C)O[C@@H]21", "class": "1 (yes)"}
{"compound": "NC(=O)c1ccc(NC(=O)c2oc3ccccc3c2-c2cnn(-c3ccccc3)c2)cc1", "class": "0 (no)"}
{"compound": "C/C(=C(\\c1ccc(OCCN2CCCCCC2)cc1)c1ccc(OC(=O)Cc2ccccc2)cc1)c1ccc(Cl)cc1", "class": "0 (no)"}
{"compound": "CC1(C)O[C@H]2OC3CCC(=O)CC3(O)[C@H]2O1 (some centres not stated)", "class": "0 (no)"}
{"compound": "CC(=O)N/C(=C1/OC(C(O)C(O)C(O)CO)CN1C)[P+](c1ccccc1)(c1ccccc1)c1ccccc1 (configuration not stated)", "class": "0 (no)"}
{"compound": "O=C(CCCCCCCCC(=O)N/N=C\\c1cc(Cl)ccc1O)N/N=C\\c1cc(Cl)ccc1O", "class": "0 (no)"}
{"compound": "CC1=CCC[C@@H]2C1(C)CC[C@H](C)[C@@]2(C)CC1=CC(=O)C(SC(C)(C)C)=CC1=O (some centres not stated)", "class": "0 (no)"}
{"compound": "COc1ccc(-c2nnc(SCC(=O)Nc3ccc(/C(C)=N\\O)cc3)n2-c2ccccc2)cc1OC", "class": "0 (no)"}
{"compound": "C/C(=N\\Nc1nc(C)cs1)c1cc2ccccc2o1", "class": "0 (no)"}
